# STUDY_SYSTEM: Spindlin1 W62A/C11orf84 complex (human, UniProt Q9Y657 50-262; Q9BUA3 1-381, W62A)
# Sequence (Q9Y657 50-262 W62A, chain 1 of 2): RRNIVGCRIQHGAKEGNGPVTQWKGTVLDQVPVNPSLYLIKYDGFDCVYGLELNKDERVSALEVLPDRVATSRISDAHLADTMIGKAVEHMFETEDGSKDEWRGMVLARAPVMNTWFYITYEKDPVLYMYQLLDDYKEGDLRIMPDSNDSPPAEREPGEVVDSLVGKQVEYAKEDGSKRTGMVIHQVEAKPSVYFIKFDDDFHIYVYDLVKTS
# Sequence (Q9BUA3 whole entry, chain 2 of 2): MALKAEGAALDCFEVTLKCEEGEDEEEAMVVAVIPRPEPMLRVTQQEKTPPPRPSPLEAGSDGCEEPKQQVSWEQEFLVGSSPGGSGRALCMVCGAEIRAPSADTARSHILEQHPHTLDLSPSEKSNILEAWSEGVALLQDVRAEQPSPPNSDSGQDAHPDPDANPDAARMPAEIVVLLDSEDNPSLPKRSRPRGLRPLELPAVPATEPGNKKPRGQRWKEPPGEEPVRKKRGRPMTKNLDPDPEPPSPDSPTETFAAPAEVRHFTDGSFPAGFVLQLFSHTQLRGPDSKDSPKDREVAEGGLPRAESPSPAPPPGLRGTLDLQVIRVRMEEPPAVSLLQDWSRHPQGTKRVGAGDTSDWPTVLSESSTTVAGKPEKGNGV
# PROTOCOL_SUMMARY: ITC
Ends that are not written are not given here. Me3 = trimethyl group on lysine (trimethyl-lysine)
MEASUREMENT_NAME: Kd (nM)
Give the value in nM but do not write nM after it.

Q) Note Kd for the binder shown: ARTK(Me3)QTARK(Me3)STG [H3K4me3K9me3 peptide]
A) 71
